Where do the numbers come from? From patent US20240277732A1.

# Assay Comment: Intranasal pharmacokinetics in plasma
# Format: in vivo, Sprague Dawley rats
# Condition Set: Sprague-Dawley, rat, in vivo, 0.5 mg/kg
Endpoint Name: AUClast/D (kg·ng·h/mL/mg)

{"columns": ["Compound", "Endpoint Name", "Value Measured"],
 "data": [
  ["CC(C)[C@@H](CC[C@@H](C)[C@H]1CC[C@H]2[C@@H]3[C@H](O)C[C@H]4C[C@@H](NCCCNCCCCNCCCN)CC[C@]4(C)[C@H]3CC[C@]12C)OS(=O)(=O)O [Aminosterol 1436]", "AUClast/D", 18700]
]}

====

# Assay Comment: Intranasal pharmacokinetics in plasma
# Format: in vivo, Sprague Dawley rats
# Condition Set: plasma, 0.5 mg/kg IN dose, SD rats
Endpoint Name: AUClast/D (kg·ng·h/mL/mg)

{"columns": ["Compound", "Endpoint Name", "Value Measured"],
 "data": [
  ["CC(C)[C@@H](CC[C@@H](C)[C@H]1CC[C@H]2[C@@H]3[C@H](O)C[C@H]4C[C@@H](NCCCNCCCCN)CC[C@]4(C)[C@H]3CC[C@]12C)OS(=O)(=O)O.C[C@H](O)C(=O)O.O [squalamine lactate]", "AUClast/D", 10600]
]}
